# Experimental Target: recombinant human GST-Syk (Homo sapiens, UniProt P43405)
# Construct: purchased Carna Biosciences 08-176
# Assay Protocol: Homogeneous Time-Resolved Fluorescence (HTRF) assay for the recombinant human Syk enzyme
# Format: biochemical
# Test Context: recombinant human GST-Syk 5 pM, ATP 25 μM, read-out: IC50
# Description: Syk inhibition of the compounds of Formula (I) may be determined using the following assay protocol: Homogeneous Time-Resolved Fluorescence (HTRF) Assay for the Recombinant Human Syk Enzyme: A recombinant GST-hSyk fusion protein was used to measure potency of compounds to inhibit human Syk activity. […] Final volume of the reaction was 10 μL. […] The resulting HTRF signal was measured after 30 minutes on a EnVision (Perkin-Elmer) reader using a time-resolved fluorescence protocol.
Metric Name: IC50 (nM)

Below, each entry is followed by its recorded IC50 result.
- Compound: "Cc1cc(Nc2cc(C(F)F)ccn2)nc(-c2ccc([C@](C)(O)[C@H]3CC[C@H](C(=O)OC[C@H]4OC(O)[C@H](O)[C@@H](O)[C@@H]4O)CC3)nc2)c1 (stereo partly shown)"
  Measure Unit: "nM"
  IC50: 0.8
- Compound: "Cc1cc(Nc2cc(C(F)F)ccn2)nc(-c2ccc([C@](C)(O)[C@H]3CC[C@H](C(=O)OCOC(=O)O[C@H]4CC[C@H](N)CC4)CC3)nc2)c1"
  Measure Unit: "nM"
  IC50: 5.2
- Compound: "Cc1cc(Nc2cc(C(F)F)ccn2)nc(-c2ccc([C@](C)(O)[C@H]3CC[C@H](C(=O)OCOC(=O)C4CCNCC4)CC3)nc2)c1"
  Measure Unit: "nM"
  IC50: 27
- Compound: "CCCC[N+](CCCC)(CCCC)COC(=O)[C@H]1CC[C@H]([C@@](C)(O)c2ccc(-c3cc(C)cc(Nc4cc(C(F)F)ccn4)n3)cn2)CC1"
  Measure Unit: "nM"
  IC50: 1.1
- Compound: "CCOCCOCCOC(=O)OC(C)OC(=O)[C@H]1CC[C@H]([C@@](C)(O)c2ccc(-c3cc(C)cc(Nc4cc(C(F)F)ccn4)n3)cn2)CC1 (stereo partly shown) [Example 2-15]"
  Measure Unit: "nM"
  IC50: 32.9

I. COCCOCCNC(=O)OCOC(=O)[C@H]1CC[C@H]([C@@](C)(O)c2ccc(-c3cc(C)cc(Nc4cc(C(F)F)ccn4)n3)cn2)CC1
II. Cc1cc(Nc2cc(C(F)F)ccn2)nc(-c2ccc([C@](C)(O)[C@H]3CC[C@H](C(=O)OC[N+](C)(C)CCOC(=O)c4ccccc4)CC3)nc2)c1
For this pair, I and II , which shows a numerically higher IC50? Select an item and report its label.
I
(I: 2.4 nM, II: 0.7 nM)

A. Cc1cc(Nc2cc(C(F)F)ccn2)nc(-c2ccc([C@](C)(O)[C@H]3CC[C@H](C(=O)OCC4CCNCC4)CC3)nc2)c1
B. CC[N+](CC)(COC(=O)[C@H]1CC[C@H]([C@@](C)(O)c2ccc(-c3cc(C)cc(Nc4cc(C(F)F)ccn4)n3)cn2)CC1)C1CCCCC1
C. Cc1cc(Nc2cc(C(F)F)ccn2)nc(-c2ccc([C@](C)(O)[C@H]3CC[C@H](C(=O)OC[C@@H]4COC(C)(C)O4)CC3)nc2)c1
Parameters: sort_field (IC50), sort_dir (desc). Your answer should be the labels, listed in the requested order.
C, A, B
